Ref: ChEMBL document CHEMBL4145684

Test system: MCF7
procedure_text: Antiproliferative activity against human MCF7 cells assessed as reduction in cell proliferation in RPMI containing 10% FBS incubated for 5 days by Cell-titer-Glo assay
Assay type: functional, cell-based
recorded_conditions: MCF7, 120 h
parameter: pIC50
The read-out pIC50 is expressed as -log10 of concentration in moles per litre.

Field: example entries. Status: answers known.
compound: CC1=C(c2ccc(O)cc2)C(c2ccc(OC[C@H](C)N3CC[C@@H](C)C3)cc2)Oc2ccc(O)cc21 (some centres not stated)
subject_of_test: MCF7
parameter: pIC50
reported_value: 10.00
//
compound: CC1=C(c2ccc(S(C)(=O)=O)cc2)C(c2ccc(OC[C@H](C)N3CC[C@@H](C)C3)cc2)Oc2ccc(O)cc21 (some centres not stated)
subject_of_test: MCF7
parameter: pIC50
reported_value: 7.57
//
compound: CC1=C(c2cccc(O)c2)C(c2ccc(OC[C@H](C)N3CC[C@@H](C)C3)cc2)Oc2cc(O)ccc21 (some centres not stated)
subject_of_test: MCF7
parameter: pIC50
reported_value: 9.52
//
compound: CC1=C(c2ccc(O)cc2)C(c2ccc(OC[C@H](C)N3CC[C@@H](C)C3)cc2)Oc2cc(O)ccc21 (some centres not stated)
subject_of_test: MCF7
parameter: pIC50
reported_value: 9.70
//
compound: CC1=C(c2cccc(O)c2)C(c2ccc(OC[C@@H](C)N3CCCC3)cc2)Oc2ccc(O)cc21 (some centres not stated)
subject_of_test: MCF7
parameter: pIC50
reported_value: 9.70
//
compound: CC1=C(c2cccc(O)c2)C(c2ccc(OCCN3CC[C@@H](C)C3)cc2)Oc2ccc(O)cc21 (some centres not stated)
subject_of_test: MCF7
parameter: pIC50
reported_value: 9.70
//
compound: CC1=C(c2cccc(O)c2)C(c2ccc(OCCN3CC[C@H](C)C3)cc2)Oc2ccc(O)cc21 (some centres not stated)
subject_of_test: MCF7
parameter: pIC50
reported_value: 9.52
//
compound: CC1=C(c2cccc(O)c2)C(c2ccc(OC[C@@H](C)N3CC[C@@H](C)C3)cc2)Oc2ccc(O)cc21 (some centres not stated)
subject_of_test: MCF7
parameter: pIC50
reported_value: 9.70

IN: Which pIC50 is reported with MCF7 for this entry: CC1=C(c2cccc(O)c2)C(c2ccc(OC[C@H](C)N3CCCCC3)cc2)Oc2ccc(O)cc21 (some centres not stated) ?
OUT: 10.00

IN: How about CC1=C(c2ccc(C#N)cc2)C(c2ccc(OC[C@H](C)N3CC[C@@H](C)C3)cc2)Oc2ccc(O)cc21 (some centres not stated) ?
OUT: 8.00
